subject.of.test: E. coli MurC (Escherichia coli, UniProt P17952)
Sequence (P17952 whole entry): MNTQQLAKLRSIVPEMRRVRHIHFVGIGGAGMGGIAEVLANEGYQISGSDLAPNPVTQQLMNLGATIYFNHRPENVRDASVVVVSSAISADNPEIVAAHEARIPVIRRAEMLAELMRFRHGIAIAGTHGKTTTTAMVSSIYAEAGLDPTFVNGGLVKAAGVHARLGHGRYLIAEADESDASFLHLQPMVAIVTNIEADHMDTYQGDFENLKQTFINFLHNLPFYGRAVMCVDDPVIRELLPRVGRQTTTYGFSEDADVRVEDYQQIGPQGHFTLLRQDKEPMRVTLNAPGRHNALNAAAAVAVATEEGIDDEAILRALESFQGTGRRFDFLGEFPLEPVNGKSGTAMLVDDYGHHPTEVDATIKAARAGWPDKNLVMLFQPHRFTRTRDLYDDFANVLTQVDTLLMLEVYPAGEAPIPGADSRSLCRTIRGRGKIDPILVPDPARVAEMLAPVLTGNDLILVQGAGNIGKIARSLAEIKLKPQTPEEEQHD
run.description: Malachite green inhibition assay, MurC
Format: biochemical
applied.conditions: 0.25 h, Table S1, PKIS screening; read-out: RA [%] at 100 µM MurC
Criterion: remaining activity at 100 µM strictly under 70%. Met: Satisfied. Not met: Not satisfied.

In: Please state whether remaining activity at 100 µM is below 70% for CCOc1nccc2c1nc(-c1nonc1N)n2CC
Out: Not satisfied

In: Here's an entry: Nc1nonc1-c1nc2cnccc2n1C1CC1 . Is its remaining activity at 100 µM below 70%?
Out: Not satisfied

In: Consider the compound c1ccc(-c2n[nH]cc2-c2ccnc(-c3ccc(OCCn4ccnc4)cc3)c2)nc1 [GW711782X] . Is its remaining activity at 100 µM strictly less than 70%?
Out: Not satisfied

In: remaining activity at 100 µM strictly < 70% for this compound? CNC(=O)c1cncc(/C=C/c2c(Cl)cccc2Cl)c1 [GW445014X]
Out: Not satisfied

In: Input c1cnn2ncc(-c3ccnc(Nc4ccc5c(c4)OCCO5)n3)c2c1 [GW806290X] ; condition: remaining activity at 100 µM strictly below 70%. Does it hold?
Out: Satisfied

In: Here's an entry: O=C(Nc1n[nH]c2cc(-c3ccccc3)ccc12)C1CC1 . Is its remaining activity at 100 µM below 70%?
Out: Not satisfied

In: Please let me know if Nc1nccc(C#Cc2cncnc2Nc2ccc(OCc3cccc(F)c3)c(Cl)c2)n1 [GW799251X] shows remaining activity at 100 µM below 70%.
Out: Satisfied

In: Dear colleague, could you confirm whether remaining activity at 100 µM of c1ccc(Oc2ccc(Nc3ncc(-c4ccccc4)o3)cc2)cc1 [GW641155A] falls below 70%? Thanks.
Out: Satisfied

In: For COC(=O)Nc1nc2ccc(Oc3ccc(NC(=O)Nc4ccccc4)cc3)cc2[nH]1 [GW694590A] , is the recorded remaining activity at 100 µM below the cut-off of 70%?
Out: Satisfied

In: Below 70% on remaining activity at 100 µM? Entry O=C1Nc2ccc(-c3cccnc3)cc2C1=Cc1cc(Br)c(O)c(Br)c1 [GW429374A]
Out: Satisfied

In: Given the entry Cc1cccc(Nc2ncc(-c3ccccc3)o2)c1 [GW632046X] , would its reported remaining activity at 100 µM be below 70%?
Out: Not satisfied

In: Check if remaining activity at 100 µM falls below 70% for CC(C)COC(=O)c1ccc2c(c1)/C(=C/Nc1ccc(S(N)(=O)=O)cc1)C(=O)N2 [GW416981X] .
Out: Satisfied

In: Would you kindly verify if remaining activity at 100 µM of COc1cc2ncn(-c3cc(OCc4cccs4)c(C(N)=O)s3)c2cc1OC [GSK312948A] is strictly less than 70%?
Out: Not satisfied

In: Report whether reported remaining activity at 100 µM is lower than 70% (strictly) for CCn1c(-c2nonc2N)nc2c(C#CC(C)(C)O)ncc(OC3CCNCC3)c21 [GSK619487A]
Out: Not satisfied

In: Bench note: check whether CN(C)CCNC(=O)Nc1ccc(N(C)c2ccnc(Nc3ccc(CS(C)(=O)=O)cc3)n2)cc1 [GW830900A] shows remaining activity at 100 µM below 70%
Out: Not satisfied

In: Please state whether remaining activity at 100 µM is below 70% for CCCN1CCC(Oc2cc(Nc3nc(Nc4cccc(F)c4C(N)=O)c4cc[nH]c4n3)c(OC)cc2Cl)CC1 [GSK1713088A]
Out: Satisfied

In: Report whether reported remaining activity at 100 µM is lower than 70% (strictly) for COc1cc(N2CCN(C(C)C)CC2)ccc1Nc1nc(Nc2cccc(F)c2C(=O)O)c2cc[nH]c2n1 [GSK1819799A]
Out: Satisfied

In: # check: remaining activity at 100 µM < 70% for N#Cc1cccc(Nc2nccc(-c3cnn4ncccc34)n2)c1 [GW778894X]
Out: Satisfied

In: I'd appreciate it if you could check whether CC1(C)CC(n2cnc(-c3ccc(F)cc3)c2-c2ccnc(N)n2)CC(C)(C)N1 has remaining activity at 100 µM smaller than 70%.
Out: Not satisfied

In: Would you kindly verify if remaining activity at 100 µM of COc1cc2ncn(-c3cc(OCCc4ccccc4)c(C(N)=O)s3)c2cc1OC [GSK204925A] is strictly less than 70%?
Out: Satisfied

In: Bench note: check whether N#Cc1cccc(Nc2ncc(-c3ccccc3)o2)c1 [GW627834A] shows remaining activity at 100 µM below 70%
Out: Not satisfied

In: # check: remaining activity at 100 µM < 70% for Fc1cccc(COc2ccc(Nc3ncnc4sc(-c5cccs5)cc34)cc2Cl)c1 [GW684626B]
Out: Satisfied

In: Does this compound meet the criterion remaining activity at 100 µM < 70%? NS(=O)(=O)c1ccc(-c2ccc3c(NC(=O)C4CC4)n[nH]c3c2)cc1
Out: Not satisfied

In: Given the entry CN(C)C(=O)O[C@H]1CN[C@H](C#Cc2cc3ncnc(Nc4ccc(OCc5cccc(F)c5)c(Cl)c4)c3s2)C1 [GSK182497A] , would its reported remaining activity at 100 µM be below 70%?
Out: Satisfied

In: I'd appreciate it if you could check whether Nc1ncc(-c2cccc(S(N)(=O)=O)c2)c2scc(-c3ccc(F)c(Cl)c3)c12 [GW856804X] has remaining activity at 100 µM smaller than 70%.
Out: Satisfied

In: Lab log: compare recorded remaining activity at 100 µM with 70%; is it strictly lower for NS(=O)(=O)c1ccc(N/N=C2\C(=O)Nc3ccc(-c4cnco4)cc32)cc1 [GW276655X] ?
Out: Not satisfied

In: Below 70% on remaining activity at 100 µM? Entry CCOc1ccc2c(-c3ccnc(Nc4cccc(C(F)(F)F)c4)n3)cnn2n1 [GW811761X]
Out: Satisfied

In: # strict comparison: is reported remaining activity at 100 µM < 70%? input = CC(=O)NCc1cccc(C#Cc2cncnc2Nc2ccc(OCc3cccc(F)c3)c(Cl)c2)c1 [GW807930X]
Out: Satisfied

In: API: query returns whether the compound falls strictly under 70% in remaining activity at 100 µM. Query: CNC(=O)c1cncc(/C=C/c2c(C)cccc2C)c1 [GW445012X]
Out: Not satisfied

In: remaining activity at 100 µM under 70%? Item: NC(=O)c1ccc2c(-c3ccnc(NCCCO)n3)c(-c3ccc(F)cc3)nn2c1 [GW581744X]
Out: Not satisfied

In: Say whether its remaining activity at 100 µM is strictly beneath 70%. Entry: CCn1c(-c2nonc2N)nc2ccncc21
Out: Not satisfied

In: Check if remaining activity at 100 µM falls below 70% for COc1cc(Nc2nccc(Nc3ccc4c(C)n[nH]c4c3)n2)cc(OC)c1OC [GW612286X] .
Out: Not satisfied

Recorded values, source paper PMC6522912.
